We begin with a simple list: items and their reported viability, T/C.
test system: 991263-137-R1-J2-PDC complex spheroid viability; experiment: Anticancer human tumor 991263-137-R1-J2-PDC patient-derived colon adenocarcinoma cell line growth inhibition [POLQ]; settings: second compound 0.1 µM; first compound 0.316 µM; stronger effect = lower value;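 further: spheroids exposed to compounds for 7 days before readout; 100% = DMSO vehicle control viability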

COc1cc2cc(C(=O)CCC(=O)O)sc2cc1OC + Cc1cccc(N(C)C(=O)C2C(O)CCN2c2nc(C)cc(C(F)(F)F)c2C#N)c1
95.4%

viability, T/C lookup needed for CC(C)n1c(=O)n(C)c2cnc3cc(F)c(-c4ccc(OCCCN5CCCCC5)nc4)cc3c21 + Nc1ccc(C#CCN(C(=O)Cc2ncc(C(F)(F)F)cc2C(F)(F)F)c2ccc(F)cc2)nn1 , thanks. 102%

Sample O=c1[nH]cc(F)c(=O)[nH]1 + COC1C(OC(N)=O)C(O)C(Oc2ccc3c(O)c(NC(=O)c4ccc(O)c(CC=C(C)C)c4)c(=O)oc3c2C)OC1(C)C — what was its viability, T/C? 108%

Which viability, T/C value is on record for C=CC(=O)N1CCN(c2nc(=O)n(-c3c(C)ccnc3C(C)C)c3nc(-c4c(O)cccc4F)c(F)cc23)C(C)C1 (centres undefined) + Nc1ccc(C#CCN(C(=O)Cc2ncc(C(F)(F)F)cc2C(F)(F)F)c2ccc(F)cc2)nn1 ? 114%
